tested on: CEM cells HIV-1 protection, formazan growth assay; assay: NCI AIDS Antiviral Assay
property: EC50

1) CC(C)C1OCC(CO)CO1 (stereo not drawn): > 200 µM
2) O=C(Nc1ccccc1)c1cc(S(=O)(=O)N2CCNNC2=O)c(S)cc1Cl: 10.2 µM
3) CN1CCN(C(=S)N(C(=O)c2ccc(Cl)cc2)C2CCCCC2)CC1: > 95.5 µM
4) CC1CC/C(=C\c2ccc(Cl)cc2)c2nc(N)c(C#N)c(-c3ccc(Cl)cc3)c21 (stereo not drawn): > 200 µM
5) CSc1sc(=S)sc1C(=O)N(C)c1ccccc1: > 200 µM
6) COC(=O)C(C(=O)C(=O)Nc1ccc([N+](=O)[O-])cc1[N+](=O)[O-])c1nc2ccc(Cl)cc2[nH]c1=O (stereo not drawn): > 74.1 µM
7) NC(CS)=NCC1C2CC3CC(C2)CC1C3 (stereo not drawn): > 200 µM
8) c1cnc2c(c1)-n1cccc1C1(CCOCC1)NN2: > 200 µM

###

tested on: CEM cells HIV-1 protection, formazan growth assay; assay: NCI AIDS Antiviral Assay; conditions: measured here: growth of uninfected CEM cells
pIC50: −log10 of the molar value.
property: pIC50

1. C[C@H](COCP(=O)(O)O)n1cnc2c(N)ncnc21: < 3.70
2. COC(=O)CCc1ccc(CCC(=O)OC)cc1: < 3.70
3. Cc1cc(=O)oc2c3c(ccc12)OC(C)(C)[C@H](OC(=O)C12CCC(C)(C(=O)O1)C2(C)C)[C@@H]3OC(=O)C12CCC(C)(C(=O)O1)C2(C)C (some centres not stated): < 3.70
4. CCCCN(CCCC)C(=O)C(=O)CC(=O)/C=C/c1ccccc1: < 3.54
5. CCOC(=O)CC(NC(=O)c1ccc(N=NN(C)C)cc1)C(=O)OCC (configuration not stated): < 3.73
6. CCCCCCCCCCCCCCCCCCCCCCCCCCCCCC=C(c1cc(Cl)c(OC)c(C(=O)OC)c1)c1cc(Cl)c(OC)c(C(=O)OC)c1: < 5.65
7. CC(C)(C)C(=O)ON1N=NC2C3CC(OCc4ccccc4)(OCc4ccccc4)C(O3)C21 (configuration not stated): < 4.80

###

System: CEM cells HIV-1 protection, formazan growth assay
Experiment: NCI AIDS Antiviral Assay;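 active = compounds giving half or more protection of infected cells from virus-caused growth loss, again on retest; inactive = the rest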
Procedure: The ability of compounds to protect human CEM cells from HIV-1 infection is measured as a screen for new compounds capable of inhibiting the HIV virus. Five concentrations of drug were tested on uninfected and infected cells and cell growth was measured using a soluble formazan assay. […] Compounds that provided at least 50% protection were retested. Compounds that provided at least 50% protection on retest were listed as moderately active. […]
Classes used: active, inactive

1) O=C(O)c1ccc(CSc2ccccc2)c([N+](=O)[O-])c1: inactive
2) CCOC(=O)c1cn2ccccc2c(C(=O)c2cccnc2)c1=N: inactive
3) c1ccc2c(c1)ccc1c2nc2c3ccccc3[nH]n12: inactive
4) Cc1cc(N=Nc2c(N)c(C)cc(N=Nc3ccc(C(N)=O)cc3)c2N)ccc1N=Nc1cc(C(=O)O)c(O)c(S(=O)(=O)O)c1: active
5) N#Cc1c(N=C2CCCCC2)c(C(=O)Nc2ccccc2)n2c1CCC2: inactive
6) CC(C)c1cccc(C(C)C)c1NC(=O)CCC(=O)NN: inactive
7) CN(C)/C(N)=N/C(N)=Nc1cccc(Cl)c1: inactive
8) NC(CC(=O)OCc1ccccc1)C(=O)OCc1ccccc1 (stereo not drawn): inactive
9) Nc1cn(C2OC(CC(c3ccccc3)(c3ccccc3)c3ccccc3)C(O)C2O)c(=O)[nH]c1=O (stereo not drawn): inactive
10) Cc1c(O)nc(-n2[nH]c3c(c2=O)CCCC3)[nH]c1=O: inactive
11) O=C1CCSc2nc(-c3ccc4c(c3)OCO4)nn21: inactive
12) C=CCN(CC=C)Cn1c(=S)sc2ccccc21: inactive
13) N#CCCN(CCN(C(=O)Nc1ccccc1)c1ccccc1)C(=O)Nc1ccccc1: inactive
14) CC(=O)Oc1ccc2cc(Oc3ccc(Cl)c(Cl)c3)c(=O)oc2c1: inactive
15) O=C(CCC(=O)Nc1ccc(Cl)cc1)CC(=O)c1ccc2ccccc2c1: inactive
16) CSc1nc(C)cc(N(C)c2ccccc2)n1: inactive
17) O=C(/C=C/c1ccccc1O)c1ccccc1: inactive
18) COc1ccc(NC(=O)/C(=C/c2ccccc2)C(C)=O)cc1: inactive
19) CCCCc1ccc(N2C(=O)c3cc([N+](=O)[O-])cnc3S2(=O)=O)cc1: inactive
20) CC1OC(n2cc(C(F)(F)F)c(=O)[nH]c2=O)C=CC1O (stereo not drawn): inactive
21) N#C/C(=C\c1cccc(OCc2ccccc2)c1)c1ccc([N+](=O)[O-])cc1: inactive
22) COC(=O)CN=C1NC(=S)N(Cc2ccc(OC)cc2)C12CCCC2: inactive
23) CC1=C(c2ccccc2)NC(=S)C(C)C(c2ccccc2)=N1 (stereo not drawn): inactive

###

Reported IC50 is given for each of the following compounds.
tested on: CEM cells HIV-1 protection, formazan growth assay; test: NCI AIDS Antiviral Assay; details: measured here: growth of uninfected CEM cells
property: IC50

1) CC(C)OP(=O)(OC(C)C)/C(F)=N/Nc1ccc([N+](=O)[O-])cc1: > 38.9 µM
2) O=c1oc(C(C(F)(F)F)C(F)(F)F)nc2ccccc12: > 200 µM
3) Cc1cn(C(C)OCCN2C(=O)c3ccccc3C2=O)c(=O)[nH]c1=O (stereo not given): > 200 µM
4) Cc1nc2ccccc2c(=O)n1NC(=S)Nc1ccc(Cl)cc1: > 39.8 µM
5) CC1=NC(=O)CNN1C1=NNC2(C(=O)N1)c1ccccc1-c1ccccc12: > 100 µM

###

test system: CEM cells HIV-1 protection, formazan growth assay; test: NCI AIDS Antiviral Assay; settings: measured here: growth of uninfected CEM cells
pIC50: −log10 of the molar value.
Reported pIC50 is given for each of the following compounds.
property: pIC50

1) CSc1nn(C)cc2ncnc1-2: < 3.70
2) CNC(=O)NCCN1CC2CCC(CC2)C1: < 3.70
3) COC(=O)c1ncc2c(=O)[nH]c3ccccc3c2c1C(=O)OC: < 4.78
4) CCCCCCOCC(=O)O: < 3.70
5) Nc1nn2cc3c(nc2c1N=Nc1ccccc1)CCCCC3: < 3.70
6) O=C(/C(=C/c1ccc(Cl)cc1)c1ccccc1)c1ccccc1: < 5.07
7) CCN1OC(C)(C)C2CCC(C)CC21 (centres undefined): < 2.90
8) Cn1c(=O)c2nc3n(c2n(C)c1=O)C(=O)C(C#N)N=N3 (centres undefined): < 3.70
9) N#Cc1c(O)c(/C=N/c2ncccn2)c(=O)n2c1[nH]c1ccccc12: < 3.70
10) Cc1cc(C)nc(NS(=O)(=O)c2ccc(Nc3c4ccccc4nc4c(C(=O)Nc5ccc(S(N)(=O)=O)cc5)cccc34)cc2)n1: < 3.84
11) O=C(CSc1nnc(Cc2ccccc2)o1)Nc1ccccc1Cl: < 3.86
12) COCc1c(CO)cnc(C)c1OC1OC(CO)C(O)C(O)C1O (centres undefined): < 3.14
13) CCN(CC)CCCOP(=O)(OCCCN(CC)CC)OCCCN(CC)CC: < 3.70
14) CCOC(=O)C1=C(OC(OCC)C(CC)[Se]c2ccccc2)CCC1 (centres undefined): < 4.34
15) CN1CCN(C(=S)N(C(=O)c2ccco2)c2ccccc2)CC1: < 3.12
16) O=c1n(-c2ccccc2)c(=O)n2n1Cc1cc3ccccc3cc1-2: < 4.10
17) C[n+]1c(-c2ccc(/C=N\NC(=O)N/N=C/c3ccc(-c4cn5ccccc5[n+]4C)cc3)cc2)cn2ccccc21: 4.32
18) Cc1csc(N2C(=O)c3cccc4cccc(c34)C2=O)n1: 4.19
19) CCCCCCCCCCCCCCCCNc1nc(=O)n(C2CC(N=[N+]=[N-])C(CO)O2)cc1C (centres undefined): 5.03
20) CC1CC(=O)Nc2ccc(N=NN(C)C)cc2N1C=O (centres undefined): < 3.70
21) Oc1cc(N2CCCC2)ccc1/C=N/N1C(=S)N(c2ccccc2)C(=Nc2ccccc2)C1=Nc1ccccc1: < 4.00
22) Cc1ccc2nc3cc(C)c(=O)cc-3sc2c1: 4.43
23) O=S(=O)(/N=S(/Nc1ccccc1)C(Cl)Cl)c1ccccc1 (centres undefined): < 3.70
24) Cc1cnc2sn(-c3ccc(Br)cc3)c(=O)c2c1: 4.94
25) N#CN/C(N)=N/C/N=C(\N)NC#N: < 3.30
26) CC(O)C(N=Cc1ccccc1[O-])C(=O)[O-].CC(O)C(N=Cc1ccccc1[O-])C(=O)[O-].[Co+2] (centres undefined): 4.19
27) CCN(C(=O)N[C@@H](Cc1ccccc1)C(=O)N[C@@H](CC(C)C)C(=O)OC)c1ccccc1: 4.54
28) NS(=O)(=O)c1nnc(NS(=O)(=O)c2ccc(Cl)cc2)s1: < 3.70
29) COC/N=C(\NC#N)NCOC: < 3.28
30) COc1ccc(/C=C/C(=O)c2sc(N)nc2C)cc1: 3.32
31) O=C(O)C12CC=CCC1(C(=O)O)CC=CC2 (centres undefined): < 3.70
32) C=CCOC(C)n1c(C)cc(=O)n(C(C)OCC=C)c1=O (centres undefined): < 3.70
33) COC(=O)c1c(C#N)c(N)nc2c1CCC2: < 3.70
34) C/C(N)=N/OCc1nc(C)no1: < 3.70
